- test: photochromic response of test squares on an optical bench (sensitivity, saturation optical density, bleach rate)
- Type: physicochemical
- studyConditions: Band A; UV exposure 15 minutes; 72° F. (22.2° C.); polymer test square
Here, each record is paired with measured ΔOD @ Saturation (Band A) data.
Just the number, please, no unit attached.

Known ΔOD @ Saturation (Band A) results, listed for orientation:
{"compound": "CCCCC1(O)c2cc(OC)c(OC)cc2-c2c1c1c(c3cc(OC)c(OC)cc23)OC(c2ccc(OC)cc2)(c2ccc(N3CCOCC3)cc2)C=C1 (stereo not shown) [Example 13]", "ΔOD @ Saturation (Band A)": 0.39}
{"compound": "CCCCC1(O)c2ccccc2-c2c1c1c(c3cc(OC)c(OC)cc23)OC(c2ccc(OC)cc2)(c2ccc(OC)cc2)C=C1 (stereo not shown) [Example 15]", "ΔOD @ Saturation (Band A)": 0.37}
{"compound": "CCC1(O)c2ccccc2-c2c1c1c(c3cc(OC)c(OC)cc23)OC(c2ccc(OC)cc2)(c2ccc(N3CCOCC3)cc2)C=C1 (stereo not shown) [Example 17]", "ΔOD @ Saturation (Band A)": 0.25}
{"compound": "CCC1(O)c2cc(OC)ccc2-c2c1c1c(c3cc(OC)ccc23)OC(c2ccc(OC)cc2)(c2ccc(OC)cc2)C=C1 (stereo not shown) [Comp. Ex. 2, reference compound]", "ΔOD @ Saturation (Band A)": 0.36}
{"compound": "CCC1(O)c2cc(OC)c(OC)cc2-c2c1c1c(c3ccccc23)OC(c2ccc(OC)cc2)(c2ccc(OC)cc2)C=C1 (stereo not shown) [Comp. Ex. 3, reference compound]", "ΔOD @ Saturation (Band A)": 0.34}
{"compound": "CCC1(CC)c2cc(OC)c(OC)cc2-c2c1c1c(c3cc(OC)c(OC)cc23)OC(c2ccc(OC)cc2)(c2ccc(OC)cc2)C=C1 [Example 6]", "ΔOD @ Saturation (Band A)": 1.02}
{"compound": "COc1ccc(C2(c3ccc(N4CCOCC4)cc3)C=Cc3c4c(c5cc(OC)c(OC)cc5c3O2)-c2ccccc2C4(C)O)cc1 (stereo not shown) [Example 19]", "ΔOD @ Saturation (Band A)": 0.34}
{"compound": "COc1ccc(C2(c3ccc(OC)cc3)C=Cc3c4c(c5c(OC)c(OC)c(OC)cc5c3O2)-c2ccccc2C4c2ccccc2)cc1 (stereo not shown) [Example 11]", "ΔOD @ Saturation (Band A)": 0.66}

Exercise: Requested read-out: ΔOD @ Saturation (Band A). Entry: COc1ccc(C2(c3ccc(N4CCOCC4)cc3)C=Cc3c4c(c5cc(OC)c(OC)cc5c3O2)-c2ccccc2C4c2ccccc2)cc1 (stereo not shown) [Example 8]
Key: 0.43

Exercise: Requested read-out: ΔOD @ Saturation (Band A). Entry: COc1ccc(C2(c3ccc(OC)cc3)C=Cc3c4c(c5cc(OC)c(OC)cc5c3O2)-c2ccccc2C4(C)C)cc1 [Example 4]
Key: 1.11

Exercise: Requested read-out: ΔOD @ Saturation (Band A). Entry: CCC1(O)c2ccccc2-c2c1c1c(c3cc(OC)c(OC)cc23)OC(c2ccc(OC)cc2)(c2ccc(OC)cc2)C=C1 (stereo not shown) [Example 5]
Key: 0.42

Exercise: Requested read-out: ΔOD @ Saturation (Band A). Entry: CCC1(O)c2ccccc2-c2c1c1c(c3cc(OC)c(OC)cc23)OC(c2ccccc2)(c2ccc(N3CCOCC3)cc2)C=C1 (stereo not shown) [Example 14]
Key: 0.41

Exercise: Requested read-out: ΔOD @ Saturation (Band A). Entry: CCC1(O)c2cc(OC)c(OC)cc2-c2c1c1c(c3cc(OC)c(OC)cc23)OC(c2ccc(OC)cc2)(c2ccc(N3CCOCC3)cc2)C=C1 (stereo not shown) [Example 12]
Key: 0.46
